Parameter pIC50: see the listing below.
- target-entity: human TLR8 (Homo sapiens)
- Sequence (Q9NR97 27-1041): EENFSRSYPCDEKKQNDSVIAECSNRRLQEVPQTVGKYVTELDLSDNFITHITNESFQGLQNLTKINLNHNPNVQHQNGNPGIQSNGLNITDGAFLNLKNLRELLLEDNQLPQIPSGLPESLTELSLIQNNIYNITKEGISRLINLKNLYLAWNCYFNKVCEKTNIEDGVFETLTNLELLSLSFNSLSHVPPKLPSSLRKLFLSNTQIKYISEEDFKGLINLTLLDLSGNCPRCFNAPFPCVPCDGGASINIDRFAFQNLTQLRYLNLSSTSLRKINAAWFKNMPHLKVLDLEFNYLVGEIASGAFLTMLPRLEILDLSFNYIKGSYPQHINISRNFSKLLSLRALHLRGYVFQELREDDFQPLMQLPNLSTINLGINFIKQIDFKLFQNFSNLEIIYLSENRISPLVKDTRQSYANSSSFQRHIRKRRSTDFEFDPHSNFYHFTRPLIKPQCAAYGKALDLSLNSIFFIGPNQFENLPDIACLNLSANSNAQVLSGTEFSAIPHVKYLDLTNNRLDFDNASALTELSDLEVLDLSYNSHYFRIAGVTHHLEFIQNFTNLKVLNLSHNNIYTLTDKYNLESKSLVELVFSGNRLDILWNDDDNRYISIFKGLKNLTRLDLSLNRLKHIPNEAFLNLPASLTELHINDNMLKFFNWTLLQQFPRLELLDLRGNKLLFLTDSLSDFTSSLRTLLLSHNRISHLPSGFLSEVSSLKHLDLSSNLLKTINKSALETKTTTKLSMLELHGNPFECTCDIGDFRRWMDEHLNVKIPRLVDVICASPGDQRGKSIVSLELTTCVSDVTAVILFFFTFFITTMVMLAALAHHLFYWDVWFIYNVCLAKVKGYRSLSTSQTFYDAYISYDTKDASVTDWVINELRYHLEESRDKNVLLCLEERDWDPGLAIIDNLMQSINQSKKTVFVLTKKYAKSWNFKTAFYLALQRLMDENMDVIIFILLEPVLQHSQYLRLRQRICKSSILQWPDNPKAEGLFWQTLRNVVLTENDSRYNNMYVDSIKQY
- experimental-details: TLR8 inhibition reporter assay (HEK-Blue SEAP)
- experimental-context: cells overexpressing human TLR8, SEAP reporter, stimulated with R848 15.9 μM, 22 hour incubation
pIC50: −log10 of the molar value.

# example entries with known answers
# compound, recorded-metric, test-result
measured = [
    ("COc1ccc(-c2[nH]c3cnc(C4CCN(C5CCN(CC(C)C)CC5)CC4)nc3c2C)cc1OC", "pIC50", "6.00 to 7.00"),
    ("CCc1c(-c2ccc(OC)c(OC)c2)[nH]c2cnc(C3CCN(CC(=O)NC)CC3)nc12", "pIC50", "6.00 to 7.00"),
    ("CCc1c(-c2ccc(OC)c(OC)c2)[nH]c2cnc(-c3nnc(CCNC)o3)nc12", "pIC50", "6.00 to 7.00"),
    ("COc1ccc(-c2[nH]c3cnc(C4CCN(C5CCN(C(C)C)CC5)CC4)nc3c2C(C)C)cc1OC", "pIC50", "> 7.00"),
    ("COc1cc(-c2[nH]c3cnc(C4CCN(C5COC5)CC4)nc3c2C(C)C)cn2ncnc12", "pIC50", "> 7.00"),
]

# pIC50 measured on human TLR8 (Homo sapiens) for item Cc1cc(-c2[nH]c3cnc(C4CCN(C5COC5)CC4)nc3c2C(C)C)cn(C)c1=O = > 7.00

# pIC50 measured on human TLR8 (Homo sapiens) for item CCc1c(-c2ccc(OC)c(OC)c2)[nH]c2ncc(C3CCNCC3)nc12 = 6.00 to 7.00

# pIC50 measured on human TLR8 (Homo sapiens) for item Cc1c(-c2[nH]c3cnc(C4CCN(CC(C)(C)O)CC4)nc3c2C(C)C)cn2ncnc2c1C = > 7.00

# pIC50 measured on human TLR8 (Homo sapiens) for item CCc1c(-c2ccc(OC)c(OC)c2)[nH]c2cnc(-c3nnc([C@H]4CCCNC4)o3)nc12 = 6.00 to 7.00

# pIC50 measured on human TLR8 (Homo sapiens) for item COc1cc(-c2[nH]c3cnc(C4CCN(CC#N)CC4)nc3c2C(C)C)cn2ncnc12 = > 7.00

# pIC50 measured on human TLR8 (Homo sapiens) for item CCc1c(-c2ccc(OC)c(OC)c2)[nH]c2ncc(C3CCN(C4CCN(C(C)C)CC4)CC3)nc12 = 6.00 to 7.00
